- test-description: P-glycoprotein substrates identified in KB-3-1 adenocarcinoma cell line, qHTS therapeutic library screen (AID 1346986); also: nearly all actives have a fitted effect of over 60% in size
- condition-description: KB-3-1 parental cells viability, CellTiter-Glo, 72 h; series mostly up to 44.5 µM
Results filed as inconclusive are left out. Active and inactive are the calls of the source. Calls follow the shape of the dose curve; as a rule, active = well fitted inhibition curve with a large enough effect; inconclusive = small, poorly fitted or top-dose-only effect; inactive = no such curve, though single readings can be large or run the other way. Where a SMILES comes first, the peptide text is derived from it.

molecule	outcome
C[C@@H](O)[C@H](N)C(=O)N1CCC[C@H]1C(=O)N1CCC[C@H]1C(=O)N[C@H](C(N)=O)[C@@H](C)O (H-TPPT-NH2)	inactive [at 9.29 µM]
COC(=O)[C@H](OC(C)=O)[C@H]1C(C)(C)C(=O)[C@H]2CC3=C4CC(=O)O[C@@H](c5ccoc5)[C@]4(C)CCC3[C@@]1(C)C2=O (stereo not given in full)	inactive
C[C@@H]1O[C@@H](O[C@@H]2[C@@H](O)[C@H](O[C@@H]3[C@@H](O)[C@@H](O)[C@H](O[C@H]4[C@H](OC(=O)[C@]56CCC(C)(C)C[C@H]5C5=CCC7[C@@]8(C)C[C@H](O)[C@H](O[C@@H]9O[C@@H](C)[C@H](O)[C@@H](O)[C@H]9O)[C@@](C)(CO)C8CC[C@@]7(C)[C@]5(C)C[C@H]6O)O[C@H](C)[C@H](O)[C@@H]4O)O[C@H]3C)OC[C@H]2O)[C@H](O)[C@H](O)[C@H]1O (stereo not given in full)	inactive [at 9.29 µM]
C[C@@H]1O[C@@H](OC[C@H]2O[C@@H](OCCc3ccccc3)[C@H](O)[C@@H](O)[C@@H]2O)[C@H](O)[C@H](O)[C@H]1O	inactive
CC(C)c1nc(N(C)S(C)(=O)=O)nc(-c2ccc(F)cc2)c1/C=C/[C@@H](O)C[C@@H](O)CC(=O)O	inactive
